Test system: ACHN renal
Assay: NCI tumour cell line growth inhibition, 48 h
EXPERIMENTAL READOUT: TGI (µM)

C#C[C@]1(O)CCC2C3CCc4cc(O)ccc4C3CC[C@@]21C (stereo partly drawn)	85.1
COc1ccc2c(c1)C(=O)c1c-2c(N2CCN(C(=O)CNCCNCCO)CC2)nc2ccccc12	24.9
CCCCCCOC(=O)/C=C/[C@]1(CO)C/C(=C/CC(C(C)C)C(C)C)C(=O)O1	20.7
COc1cccc2c1C(=O)c1c(O)c3c(c(O)c1C2=O)C[C@](O)(C(=O)CO)C[C@H]3O[C@@H]1C[C@@H](NC(=O)CCCCCN(C)C2(c3ccc(F)cc3)CC3CCC2C3)[C@H](O)[C@@H](C)O1 (stereo partly drawn)	6.66
CCOC(=O)C(Cc1ccc(CCCC(=O)NCCC(=O)Nc2ccc3nc(C)sc3c2)cc1)C(=O)OCC	34.3
Nc1nc(/C=C\c2ccc([N+](=O)[O-])s2)nc(N2CCCC2)n1	10.9
CC[C@H]1[C@@H]2C=C[C@@H]3[C@H]4C/C=C\C(=O)NCCC[C@@H]5NC(=O)/C(=C(O)/C=C/[C@@H]4C[C@@H]3[C@H]2C[C@H]1C)C5=O	1.57
CC12CC(c3ccccc3O1)C(C(=O)Nc1ccc(Cl)cc1Cl)C(=O)N2 (stereo not drawn)	67.3
CCC[CH2][Sn]([Cl])([CH2]CCC)[CH2]CCC	0.276
CCn1c2ccccc2c2cc(NC(=O)Nc3ccc([N+](=O)[O-])cc3C)ccc21	14.9
O=C1/C(=C/c2ccccc2S)N=C(c2ccccc2)N1c1nc2c(Cl)cc(Cl)cc2s1	58
C=CCn1c(C)nc2ccc(Nc3nc(Nc4ccc5nc(C)n(CC=C)c5c4)c4ccccc4n3)cc21	3.01

====

Test system: U251 CNS
Outcomes: yes (active), no (inactive)

O=C1Nc2ccccc2/C1=N\[O-].O=C1Nc2ccccc2/C1=N\[O-].[Cu+2]	no
O=C1/C(=C/c2cccc(Cl)c2Cl)N=C(c2ccccc2)N1C1CC1	no
CCOC(=O)Nc1ccc(-c2nc(-c3cccc(OCCN4CCOCC4)c3)c(-c3ccnc(Br)c3)[nH]2)cc1	no
Cc1ncc(C(=O)Nc2ccc(CN3CCN(C)CC3)c(C(F)(F)F)c2)cc1C#Cc1cnc(N)c2ccncc12	no
COc1ccc(-c2nc3ccc(-c4nc5ccc(N6CCN(c7ccccc7)CC6)cc5[nH]4)cc3[nH]2)cc1OC	no
CS(=O)(=O)CCNCc1nc(-c2ccc3ncnc(Nc4ccc(OCc5cccc(C(F)(F)F)c5)cc4)c3c2)cs1	no
COc1ccc(/C=C2/N=C(c3ccccc3)N(c3c(C)n(C)n(-c4ccccc4)c3=O)C2=O)cc1OC	no
COc1ccc(-c2nn(-c3ccc(NC(=O)c4ccc(Cl)c(Cl)c4)cc3)cc2-c2ccncc2)cc1Cl	no
COc1cc2c(cc1OCCCNC(=O)c1cccc3c(=O)c4ccccc4[nH]c13)N=C[C@@H]1CCCN1C2=O	yes
COc1cc(F)ccc1-c1ncnc(Nc2cccc(CS(C)(=N)=O)c2)n1 (stereo not given)	no
CCCN1C(=O)N(CCC)C2C1NC(=S)N2/N=C/C=C/c1ccccc1OC (stereo not given)	no
C[C@@H]1CC[C@@H]2[C@@H]1[C@H](OC(=O)/C=C/c1ccccc1)[C@]1(C3CCCCC3)C[C@@H](OC(=O)CO)[C@@]2(C)O1	no
C=C(C)[C@@H]1CC[C@]2(C)[C@H](CC=C3[C@@H]4CC(C)(C)CC[C@]4(C(N)=O)CC[C@]32C)[C@@]1(C)CCC#N	no
COc1cccc2c1C(=O)c1c(O)c3c(c(O)c1C2=O)C[C@](O)(C(=O)CO)C[C@H]3O[C@@H]1C[C@@H](NC(=O)CCCCCN(C)C2(c3ccc(F)cc3)CC3CCC2C3)[C@H](O)[C@@H](C)O1 (stereo not given in full)	no
COc1ccc2c(c1)C(=O)c1c-2c(N2CCN(C(=O)CNCCNCCO)CC2)nc2ccccc12	no
COc1cc2c3c(n(C)c(=O)c2cc1OC)-c1cc2c(cc1/C3=C\CN)OCO2	yes
O=C(Nc1ccncc1)C(=O)c1cn(S(=O)(=O)c2ccc(F)cc2)c2ccccc12	no
Clc1ccc2[nH]cc(-c3nnnn3-c3ccccc3)c2c1	no
O=C(CSc1nc2ccccc2nc1-c1ccccc1)Nc1ccc(F)cc1	no
CCSc1ncnc2c1ncn2C1OC(CO)C(O)C1O (stereo not given)	no
